Just for reference, patent US20230301300A1 is where these values come from.

test system: Veronica persica (VERPE); assay: B2 Post-Emergence Efficacy - Test 2; assay type: in vivo; conditions: 15 g/Ha, 15 days after application, 0-100 scale
ENDPOINT LABEL: Herbicidal activity VERPE
Number only, no unit.

Cc1nn(C)c(=O)c(-c2c(F)ccc(Cl)c2CCc2ccc(C(F)(F)F)nc2)c1O [Compound 1.042]
80
Cc1nn(C)c(=O)c(-c2c(F)ccc(Cl)c2CCc2ccccc2C(F)(F)F)c1O [Compound 1.066]
80
Cc1nn(C)c(=O)c(-c2c(F)ccc(Cl)c2CCc2ccc(Cl)cc2)c1OC(=O)C(C)C [Compound 1.089]
70

## Task Tell me the measured Herbicidal activity VERPE of Cc1nn(C)c(=O)c(-c2c(F)ccc(Cl)c2CCc2ccc(C#N)cc2)c1O [Compound 1.024] , please.
## Result 80

## Task Fill in: Herbicidal activity VERPE of Cc1nn(C)c(=O)c(-c2c(F)ccc(Cl)c2CCc2ccc(F)cc2)c1O [Compound 1.048] is ___
## Result 60

## Task Look at this compound and give its reported Herbicidal activity VERPE. Cc1nn(C)c(=O)c(-c2c(F)ccc(Cl)c2CCc2ccc(F)cc2)c1OC(=O)C(C)C [Compound 1.125]
## Result 70
